# testSystem: Human recombinant Cyclooxygenase-2 expressed in Sf21 cells (Homo sapiens)
# Sequence (P35354 18-604): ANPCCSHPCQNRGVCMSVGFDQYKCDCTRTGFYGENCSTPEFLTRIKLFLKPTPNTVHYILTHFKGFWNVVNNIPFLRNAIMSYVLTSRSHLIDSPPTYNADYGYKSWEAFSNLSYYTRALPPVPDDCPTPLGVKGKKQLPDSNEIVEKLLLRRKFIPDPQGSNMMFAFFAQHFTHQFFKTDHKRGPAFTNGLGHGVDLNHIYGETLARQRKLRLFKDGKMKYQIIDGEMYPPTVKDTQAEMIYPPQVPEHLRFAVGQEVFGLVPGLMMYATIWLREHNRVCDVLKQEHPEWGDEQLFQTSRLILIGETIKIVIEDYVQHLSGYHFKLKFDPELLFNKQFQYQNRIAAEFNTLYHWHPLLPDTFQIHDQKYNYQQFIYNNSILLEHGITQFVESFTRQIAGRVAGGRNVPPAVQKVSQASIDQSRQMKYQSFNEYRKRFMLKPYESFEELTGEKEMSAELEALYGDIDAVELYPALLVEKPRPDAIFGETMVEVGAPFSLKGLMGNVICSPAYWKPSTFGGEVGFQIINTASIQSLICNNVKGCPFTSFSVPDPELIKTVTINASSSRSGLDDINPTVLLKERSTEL
# experiment: COX II inhibition (PGE2 EIA)
# experimentalConditions: human recombinant enzyme, 0.3 μM arachidonic acid
readoutType: IC50 (nM)
One number for each entry, in nM.

Name the reported IC50 value associated with the compound O=C(O)c1cccnc1Nc1cccc(C(F)(F)F)c1 691
